pKd values, listed per item
# measured.on: DN-IV quality control recombinant protein (produced by the company) (dengue virus)
# assay.summary: BLI, antibody on AMC sensor
Convention used: pKd is expressed as -log10 of the molar concentration.

>>> reported_measurement("Mutation 1-1 (antibody, V domains shown) VH: EVQLQQPGPELVKPGASVKMSCKASGYTFTSSVIHWVRQKPGQGLEWIGYMNPYNDGIKYNEKFIGKAILTSDKSSSTAYMQLSSLTSEDSAVYYCTKEGLFYVFDYWGQGTSVTVSS VL: QIVLTQSPAIMSASPGEKVTMTCSATSSLSYMHWYQQKSGTSPKRWIYDSSKLASGVPVRFSGSGSGTSYSLTISSMEAEDAATYFCQWWRSDLPTFGAGTKLELKR")
9.35

pKd measured on Mutation 1-23 (antibody, V domains shown) VH: EVQLQQPGPELVKPGASVKMSCKASGYTFTSYVIHWVRQKPGQGLEWIGYMNPYNDGLKYNEKFIGKAILTSDKSSSTAYMQLSSLTSEDSAVYYCTKEGLFYVFDYWGQGTSVTVSS VL: QIVLTQSPAIMSASPGEKVTMTCSATSSLSYMHWYQQKSGTSPKRWIYDSSKLASGVPVRFSGSGSGTSYSLTISSMEAEDAATYFCQQWRSDLPTFGAGTKLELKR = 8.40

pKd measured on Mutation 1-14 (antibody, V domains shown) VH: EVQLQQPGPELVKPGASVKMSCKASGYTFTSYVIHWVRQKPGQGLEWIGYMNPYNDGIKYNEKFIGKAILTSDKSSSTAYMQLSSLTSEDSAVYYCTKEGLFYVMDYWGQGTSVTVSS VL: QIVLTQSPAIMSASPGEKVTMTCSATSSVSYMHWYQQKSGTSPKRWIYDSSKLASGVPVRFSGSGSGTSYSLTISSMEAEDAATYFCQQWRSDLPTFGAGTKLELKR = 8.56

Every entry's value here was drawn from patent US20210324054A1.
